Quick reference for Anti-aPC IC50 (nM), Amidolytic activity among some binders
- TESTED TARGET: human activated Protein C (human, UniProt P04070 43-461)
- PROTOCOL NOTES: cell-based or functional assay
Express the result in nM but write the number alone.

Example binders with recorded Anti-aPC IC50 (nM), Amidolytic activity:
INSERT INTO results (binder, readout_units, measured_value) VALUES
  ('T46J23-hIgG1 (antibody, V domains shown, also called T46J23-IgG) VH: EVQLLESGGGLVQPGGSLRLSCAASGFTFGNHWMTWVRQAPGKGLEWVSGVSWNGSRTHYADSVKGRFTISRDNSKNTLYLQMNSLRAEDTAVYYCALTGRSGWMRFPNWFDPWGQGTLVTVTS VL: LTQPPSASGTPGQRVTISCTGTSSNIGAGYDVHWYQQLPGTAPKLLIYDNNNRPSGVPDRFSGSKSGTSASLAISGLRSEDEADYYCAAWDDSLNGVVFGGGTKLTVLG', 'nM', 18),
  ('C25K23 IgG1 (antibody, V domains shown, the claims call them variable regions; also called C25K23 hIgG; C25K23 hIgG1) VH: EVQLLESGGGLVQPGGSLRLSCAASGFTFSSYWMSWVRQAPGKGLEWVSGVSWNGSRTHYADSVKGRFTISRDNSKNTLYLQMNSLRAEDTAVYYCALTGRSGWMRFPNWFDPWGQGTLVTVSS VL: QSVLTQPPSASGTPGQRVTISCTGSSSNIGAAYDVHWYQQLPGTAPKLLIYGNNKRPSGVPDRFSGSKSGTSASLAISGLRSEDEADYYCQSYDSSLSGSVFGGGTKLTVLG', 'nM', 131);

The record that follows has no Anti-aPC IC50 (nM), Amidolytic activity shown yet.
**Query** Looking for the measured Anti-aPC IC50 (nM), Amidolytic activity of C7I7 hIgG1 (antibody, V domains shown, also called C717-IgG) VH: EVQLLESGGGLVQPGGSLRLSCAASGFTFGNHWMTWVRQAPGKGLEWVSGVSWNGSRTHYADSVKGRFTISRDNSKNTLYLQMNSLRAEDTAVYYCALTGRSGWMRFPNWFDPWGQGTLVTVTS VL: QSVLTQPPSASGTPGQRVTISCTGSSSNIGAGYDVHWYQQLPGTAPKLLIYGNSNRPSGVPDRFSGSKSGTSASLAISGLRSEDEAAYYCSSYVGSDLVVFGGGTKLTVLG , can you help?
**Result** 64
